Tested on: MS2 coat protein
Test: apparent KD of MS2 coat protein; higher = weaker reporter binding
Conditions: Eterna round: R107; input ligand: arginine 13.2 mM
measured_metric: apparent KD of MS2 coat protein (nM)
Report as a plain number; the unit nM is understood.

Q: Let me know recorded apparent KD of MS2 coat protein for UCUUGAGUUUCGGAUACCAGUGAUGUCGAUACAUGAGGAUCACCCAUGUUAGAGGAUGUACACCCUUGGCAGCCGGGUGUGGCGG [wswmullin] , thanks.
A: 25.1

Q: Supply reported apparent KD of MS2 coat protein belonging to this sequence: CUACAUGGGCUCGAUACCAGUCAGCUCUCGCGUCUCUCAGACAUGAGGAUCACCCAUGUUGACCCUUGGCAGCGACGAUGUAGGC [theeternabot_exclusion_MS2_Theo_B_46]
A: 51.1

Q: Quickly give me recorded apparent KD of MS2 coat protein for AACAUGAGGAUCACCCAUGUAUGUUCCGAAGGAGCGCCACAUGAGGCAGGUAGGUCGCGGGUACAUGAGGAUCACCCAUGUGUCA [Exclusion Arginine A 3]
A: 56.5

Q: Give apparent KD of MS2 coat protein for GGUUGGUAUAUAUAUAUAUUGAUUACUGAAGGAGCGGGAAAUAACCCAGGUAGGUCGCAGAGAUCCACAUGAGGAUCACCCAUGU [!0.G]
A: 24.3

Q: Answer with the recorded apparent KD of MS2 coat protein of GCUGCCAUACGAAGGAGCGCUGUUGUAGUGAGGCGAACAUGAGGAUCACCCAUGUGGCAGCAGCAGGUAGGUCGCGUAUGGCAGC [EAB #13] only.
A: 13.7

Q: Give apparent KD of MS2 coat protein for UCGGGAACAUGAGGAUCACCCAUGUCAGAAGGAGCGCUGAGAGAAGCAGGUAGGUCGCUGACGUAGGAGCUCUCUUCCUAUACGC [Exclusion - Arginine A]
A: 23.3

Q: // Input: AAGCUGGGUGUAAAAUAAAUAAUCACUGAUACCAGACUAUGAGAUGUCCCUUGGCAGCAGAAACAUGAGGAUCACCCAUGUAAUA [JR_Nu_ExcTheophyA_Sub027] . Output its apparent KD of MS2 coat protein only.
A: 21.4

Q: Read off the recorded apparent KD of MS2 coat protein for AAAGGAAGGUAAAAUAAAACUACAUGUGAAGGAGCGCCCGAAAGGGCAGGUAGGUCGCACAUGAGGAUCACCCAUGUCCUUCCAA [ArgEX 6 #SwitchBubble]
A: 206

Q: Determine its reported apparent KD of MS2 coat protein: GGCGCGGUGAUGGUAGCCGGACGCUAGGUACGAGGACCGGUACGGCCGCCACUCGGAGUCCUGGGACAUGAGGAUCACCCAUGUA [Same State Trp A GF18]
A: 78.9

Q: Tell us which apparent KD of MS2 coat protein value is on record for AAGGUGAUCCGUGAUACCAGCUCAACAUGAGGAUCACCCAUGUACGGGACGAAAGUCCCGGGCCCUUGGCAGCACGGUUGCCAAG [SSTheo B #20]
A: 53.2

Q: Fill in reported apparent KD of MS2 coat protein for this entry: UGACAUUGCUCAGAUACCAGACAUGAGCAUCAGCCAUGUACCAAGAGUACAUAUUAAAAUGUCCCUUGGCAGCUGAGCAAUGUCU [Mod of Eli's TheoBX5 #AlternateMS2 v1]
A: 15.2

Q: Let me know recorded apparent KD of MS2 coat protein for UCAAAUGCGGCGGCCGCCACUCGCGGAUAACGAUAGCUUAACAUGAGGAUCACCCAUGUGUCAUGGAGGACCGGGCCCAUAACAU [ttmullin] , thanks.
A: 23.4

Q: Indicate its recorded apparent KD of MS2 coat protein; the sequence in question is AUAACAUGAGGAUCACCCAUGUAAGCAGAUACCAGCUAGGAAACUAGCCCUUGGCAGCUGCAAUCAUGGGUGUGGUAUCUGCUAA [(M1)-(M2)-(T1)-(T2)-(M)'-(T)'_Design5]
A: 21.5

Q: Give reported apparent KD of MS2 coat protein value for UCGCUCUGGGUGAGAUCCGGAGAUGUGGAAGGAGCGCUGGUUCCAGCAGGUAGGUCGCCAACGGACAUGAGGAUCACCCAUGUAC [Same State - Arginine A (Freestyle 13)]
A: 39.2

Q: Look up and state reported apparent KD of MS2 coat protein for CUGCCAUGCAGAGAUACCAGUGCGCUCAGCACAUGAGGAUCACCCAUGUUGGCUGCCGAUCACCCUUGGCAGCUCUGCAUGGCAG [#04 Same State - Theophylline B]
A: 10.9

Q: // fetch apparent KD of MS2 coat protein given entry UAUCGUCAGACGGCCGCCACUAGAACAUGAGGAUCACCCAUGUAGUGGCCGGAUACCUCAAUAACUAGGACCGGGUCUGACGAAU [(Trp1)-(Ms2)-(T)'-(M)'-(Trp2)_Design17]
A: 36.6

Q: Specify measured apparent KD of MS2 coat protein for ACGCCCAGGUAGGCUUAAUGGGAUAUGGAAGGAGCGCUGAUGCAAGCAGGUAGGUCGCCAACGGACAUGAGGAUCACCCAUGUAC [Same State - Arginine A (Freestyle 3)] .
A: 15.3

Q: Indicate the recorded apparent KD of MS2 coat protein value for this sequence: UUAUGCAGGUCGGCCGCCACUACACACAUGAGGAUCACCCAUGUAGUUACUGGGUGAAGUGGCAGUAGGACCGGGACCUGCAUAC [Brourdmod06]
A: 55.4

Q: Name the recorded apparent KD of MS2 coat protein of the item AAGGUGAUCCCAGAUACCAGCUUAACAUGAGGAUCACCCAUGUAUGGGACGAAAGUCCCGGGCCCUUGGCAGCUGGGUUGCCAAG [SSTheo B #16] in your answer.
A: 43.6

Q: Read the entry GGCUGACAUGAGGAUCACCCAUGUAGUGAUACCAGUAAGAGAAUAUACCCUUGGCAGCACAGGUAACAACUCGUCUCCAAAGUAA [theeternabot_sameState_MS2_Theo_A_49] and write its reported apparent KD of MS2 coat protein.
A: 53.7

Q: Find the measured apparent KD of MS2 coat protein of CAAUAGAUAGCGGCCGCCACUUACUCAUGAGGUAACAACAUGAGGAUCACCCAUGUUUGAGGAUCAAGGACCGGGCUAUUUAUUG [AstrosSSTryB#7] and report it.
A: 29.1

Q: Identify measured apparent KD of MS2 coat protein corresponding to AUACAUGAGGAUCACCCAUGUAAAGUUGAAGGAGCGACCAGAGGGUCAGGUAGGUCGCAACACAUGAGGAUCACCCAUGUAUCGA [DOUBLE!!! :-D #6]
A: 53.3

Q: Report apparent KD of MS2 coat protein, nothing else, for this sequence: AACAUGAGGAUCACCCAUGUCUGAACUGAAGGAGCGCUAAAUAAGGCAGGUAGGUCGCGGAAUUUUGUGUACAUAUGUAUAUGGG [9.H]
A: 21.7

---

Tested on: MS2 coat protein
Assay: apparent KD of MS2 coat protein; designed switch direction (-1 OFF switch, 1 ON switch): 1; higher = weaker reporter binding
Details: Eterna round: R95; input ligand: FMN 200 uM
I'd be grateful if you could share measured apparent KD of MS2 coat protein for these entries.
The figure you give is taken to be in µM; do not add the unit.

Q: Report apparent KD of MS2 coat protein for GUAAAACAUGAGGAUCACCCAUGUCAACAAAGUCGAGGAUAUGGGCAAAUAAAAUAAGAACCAGAAGGCGAAUAAU [salish99_SS1_r3_011] (puzzle: Same State 1)
A: 0.0316

Q: Note apparent KD of MS2 coat protein for the sequence shown: AGGGAGGAAGCUGAGGAUAUCGUAGGGAGGACAUGAGGAUCACCCAUGUGUAUAGAAUUGGAGGACGAGAAGGCAGAGGAGUGGG [JR_SS2_Sub051] (puzzle: Same State 2)
A: 0.0566

Q: Please report the measured apparent KD of MS2 coat protein for GUUUGACAUGAGGAUCACCCAUGUCAUACGGACACAGGAUAUCGUGGCCUGAAGCCGUCAUGAGAAGGGUGACCAA [Ceaza] (puzzle: Same State 1)
A: 0.0338

Q: Kindly indicate its recorded apparent KD of MS2 coat protein. Item: UGUAAACAUGAGGAUCACCCAUGUAAUAUAAUGGGAGGAUAUCUGAAUUAAUUAAAUUAAGGAGAAGGCCUAAUGG [Mat - Same State 1 - Mod of Eli - D48] (puzzle: Same State 1)
A: 0.0798

Q: Answer with the recorded apparent KD of MS2 coat protein for the sequence listed here: AAGGUGCAGGUACAGGAUAUGUUGCUCGUAACAUGAGGAUCACCCAUGUACCUAUGAGAUUAAAUGCAGAAGGGUGCACACCAAA [Mat - Same State 2 - Mod of UCT - D91] (puzzle: Same State 2)
A: 0.073

Q: Return reported apparent KD of MS2 coat protein. Input sequence: AGUCCAGCCUGAGCUGGACAAAAGCAUGUACAUGAGGAUCACCCAUGUUCAUGUACAAGCUUUUUGCUCGUCUUGCU [salish99_208a_r3_105x] (puzzle: Sensor for hsa-mir-208a)
A: 0.578

Q: Tell me its apparent KD of MS2 coat protein given UUAAGCCACGAGCAGGAUAUGUAUUAAAAUACAUGAGGAUCACCCAUGUGCAGGUGUAACACCUGACAGAAGGGCCAAUCGCGGC [Soondi - 1] (puzzle: Same State 2) as the entry.
A: 0.256

Q: Identify measured apparent KD of MS2 coat protein corresponding to CUAUCUACAGGUGUCAUUGCUCGUCUUAUACAUGAGGAUCACCCAUGUUAUAGCCCGGUGCUUGCGCUGGGCUGAUU [JL ViennaUCT Tearor mod 5] (puzzle: Sensor for hsa-mir-208a)
A: 0.114

Q: Please report the measured apparent KD of MS2 coat protein for AGUCCAGCCUGAGCUGGACAAAAGCAUGUACAUGAGGAUCACCCAUGUCAUGUGCAAGCUUUUUGCUCGUCUUAAUA [Zipper 49 - 5] (puzzle: Sensor for hsa-mir-208a)
A: 0.0645

Q: Look up and report measured apparent KD of MS2 coat protein for this entry: UUUAGUUGCGGGCAGGAUAUGUAUUAAAAUACAUGAGGAUCACCCAUGUGCGGGUAUAACACCCGACAGAAGGGCCAAUCGCAAC [Laonerce - 6] (puzzle: Same State 2)
A: 0.0222
